Attribution: ChEMBL document CHEMBL3988442

# Species on record: Homo sapiens
# METHOD_DESCRIPTION: To identify inhibition of the IFN signalling (Jak-Stat) pathway via expression of an eGFP reporter gene under the control of an IFN-stimulated response element (ISRE) containing MxA promoter.
# Format: functional
# Set-up: scale not given: direction of the effect not stated beside the values
# CONDITION_SET: 30 µM
Percent Effect values for the compounds below.
Enter your answer as a number in %; do not include the unit.

The examples below pair each entry with its known result.
Cc1cc(C)nc(Nc2cccc(C3CCCN(C)C3)n2)n1 (configuration not stated)	-3.42
COc1cccc(OCC2CCCN(C(C)=O)C2)c1 (configuration not stated)	8.14
CCC1CCCCCN1C(=O)c1nnc2ccccc2c1N (configuration not stated)	7.13
CC(C)(C)n1ncc2c1NC(=O)CC2c1ccccc1 (configuration not stated)	12.2
CS(=O)(=O)c1ccc(NC(=O)NCc2ccc3c(c2)CCC3)cn1	4.37
CN(Cc1ccc(Cl)s1)C1CCCN(c2cccnn2)C1 (configuration not stated)	10.5

compound Cc1occc1C(=O)N1CCC2(CCC2NC(=O)c2ccn(C)c2)CC1 (configuration not stated) , Percent Effect observed: -2.79

compound O=C(C1CC=CC1)N1C[C@@H]2[C@@H](C1)OCC(=O)N2Cc1cccnc1 , Percent Effect observed: 15

compound Cc1ccc(CCC(=O)N2CCCC(n3cncn3)C2)c(C)c1 (configuration not stated) , Percent Effect observed: -1.21

compound COCCN1C[C@@H]2CN(c3ncccn3)C[C@@H]2C1=O , Percent Effect observed: -19.7

compound COC(=O)C(NC(=O)COC1CCCC1)c1cc(F)ccc1F (configuration not stated) , Percent Effect observed: -0.885

compound O=S(=O)(Nc1cnn(C2CCOCC2)c1)c1ccc(F)c(F)c1 , Percent Effect observed: -0.875
